- Test system: Pyricularia oryzae Carvara KA301
- Assay type: in vivo
- PARTICULARS: 10 ppm, sprayed on Nakdong rice plant; control value from lesion area
Would you kindly list C. V. (%) Fungicidal Activities against RCB at 10 ppm (TABLE 6) for each of these compounds?
Give bare numbers, in %.

These solved cases illustrate the format of a correct answer.
* CNC(=O)C(=NOC)c1ccccc1COc1cccc(OC(F)=C(c2cccc(Cl)c2)C(F)(F)F)c1 | 100
* CNC(=O)C(=NOC)c1ccccc1COc1cccc(OC(F)=C(c2ccc(Cl)cc2)C(F)(F)F)c1 | 99
* COC=C(C(=O)OC)c1ccccc1COc1cccc(OC(F)=Cc2cccc(OC)c2)c1 | 95
* COC=C(C(=O)OC)c1ccccc1COc1cccc(OC(F)=Cc2cccc(C)c2)c1 | 96
* COC=C(C(=O)OC)c1ccccc1COc1cccc(OC(F)=Cc2ccccc2C)c1 | 94
* COC=C(C(=O)OC)c1ccccc1COc1cccc(OC(F)=Cc2ccc(C)cc2)c1 | 95
* COC=C(C(=O)OC)c1ccccc1COc1cccc(OC(F)=Cc2ccc(Cl)cc2)c1 | 100
* CNC(=O)C(=NOC)c1ccccc1COc1cccc(OC(F)=C(c2ccccc2)C(F)(F)F)c1 | 100
* COC=C(C(=O)OC)c1ccccc1COc1cccc(OC(F)=Cc2ccc(F)cc2)c1 | 94
* CCOc1ccc(C(=C(F)Oc2cccc(OCc3ccccc3C(=NOC)C(=O)NC)c2)C(F)(F)F)cc1 | 95

Each of the following entries comes with a recorded value; kindly state C. V. (%) Fungicidal Activities against RCB at 10 ppm (TABLE 6) for each.
1. COC=C(C(=O)OC)c1ccccc1COc1cccc(OC(F)=Cc2ccc(OC)cc2)c1
2. CON=C(C(=O)OC)c1ccccc1COc1cccc(OC(F)=C(c2ccc(Cl)cc2)C(F)(F)F)c1
3. CNC(=O)C(=NOC)c1ccccc1COc1cccc(OC(F)=C(c2ccc(OC)cc2)C(F)(F)F)c1
4. COC=C(C(=O)OC)c1ccccc1COc1cccc(OC(F)=C(c2ccc(F)cc2)C(F)(F)F)c1

[out]
92
93
96
95

Each of the following entries comes with a recorded value; kindly state C. V. (%) Fungicidal Activities against RCB at 10 ppm (TABLE 6) for each.
1. CNC(=O)C(=NOC)c1ccccc1COc1cccc(OC(F)=C(c2cccc(C)c2)C(F)(F)F)c1
2. CNC(=O)C(=NOC)c1ccccc1COc1cccc(OC(F)=C(c2cccc(OC)c2)C(F)(F)F)c1

[out]
1. 95
2. 93
